B1: CDC34 (parent)
chain: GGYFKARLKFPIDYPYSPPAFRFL

variants of: B1; assay: protein stability index of a GFP-peptide fusion (GPS, HEK-293T) (PSI 1-6); higher = more stable; settings: c terminus: a fixed tail appended;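 note: lentivirally expressed fusions sorted by FACS into six bins by GFP to DsRed ratio, PSI derived from sequencing read proportions per bin multiplied by bin number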
Reported values of protein stability index for individual entries
// response body must contain only the number

Known results for variants:
[
  {
    "MUTANT_LABEL": "P18Y",
    "protein stability index": 2.48
  },
  {
    "MUTANT_LABEL": "G2S",
    "protein stability index": 2.18
  },
  {
    "MUTANT_LABEL": "R7H",
    "protein stability index": 3.7
  },
  {
    "MUTANT_LABEL": "F10N",
    "protein stability index": 3.08
  },
  {
    "MUTANT_LABEL": "Y3M",
    "protein stability index": 2.46
  }
]

protein stability index reported for this variant A6D : 2.1

Reported protein stability index for K9N was 2.39

protein stability index in this record for Y14S : 4.54

For this variant ( P18L ), measured protein stability index is 2.54
